- Experimental system: T1, GST-thCENP-K^ΔN75
- T1 chain: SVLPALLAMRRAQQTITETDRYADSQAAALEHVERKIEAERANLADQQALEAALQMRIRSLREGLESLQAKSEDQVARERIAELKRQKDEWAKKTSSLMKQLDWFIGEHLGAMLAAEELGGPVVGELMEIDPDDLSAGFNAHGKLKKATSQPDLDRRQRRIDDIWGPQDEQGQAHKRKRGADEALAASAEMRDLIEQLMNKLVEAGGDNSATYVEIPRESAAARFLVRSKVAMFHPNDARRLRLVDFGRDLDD
- Assay overview: GST pull-down
- Measurement parameters: chain shown with the change;; parent: est. 1.0; read off a plot
Reported metric: ratio to parent
Lab note: jot down the number only; don't add units.

I'd like to know its ratio to parent. The binder in question is full-length T. terrestris CENP-H (thCENP-H) I211A; L219A (protein) MAATASTATPTPLPHFTEREASVLALYDRLRQLQLELALLTSQRSHGVIETSASRRAENDLAVDEARLLEARATLDLRDSVVENVVTLQPILNAVHHATHASPLERDLLPYTEQRDATATKVASLCADLDSAWGRLAELETESLRATQRNMELASEVLRLAAGTNDKTPSQLEGGRLEMELAGHEAEMKSNRRRWRIMKGAASAIVAGSGADWVRDERARDLVLDLPD
0.46

I'd like to know its ratio to parent. The binder in question is full-length T. terrestris CENP-H (thCENP-H) I205A; I211A (protein) MAATASTATPTPLPHFTEREASVLALYDRLRQLQLELALLTSQRSHGVIETSASRRAENDLAVDEARLLEARATLDLRDSVVENVVTLQPILNAVHHATHASPLERDLLPYTEQRDATATKVASLCADLDSAWGRLAELETESLRATQRNMELASEVLRLAAGTNDKTPSQLEGGRLEMELAGHEAEMKSNRRRWRIMKGAASAAVAGSGADWVRDERLRDLVLDLPD
0.33

Source listed as paper PMC6326798.
